Recorded IC50 for the following molecules
Measured target: recombinant PDE IVA enzyme (Homo sapiens, UniProt P27815)
Sequence (P27815 whole entry): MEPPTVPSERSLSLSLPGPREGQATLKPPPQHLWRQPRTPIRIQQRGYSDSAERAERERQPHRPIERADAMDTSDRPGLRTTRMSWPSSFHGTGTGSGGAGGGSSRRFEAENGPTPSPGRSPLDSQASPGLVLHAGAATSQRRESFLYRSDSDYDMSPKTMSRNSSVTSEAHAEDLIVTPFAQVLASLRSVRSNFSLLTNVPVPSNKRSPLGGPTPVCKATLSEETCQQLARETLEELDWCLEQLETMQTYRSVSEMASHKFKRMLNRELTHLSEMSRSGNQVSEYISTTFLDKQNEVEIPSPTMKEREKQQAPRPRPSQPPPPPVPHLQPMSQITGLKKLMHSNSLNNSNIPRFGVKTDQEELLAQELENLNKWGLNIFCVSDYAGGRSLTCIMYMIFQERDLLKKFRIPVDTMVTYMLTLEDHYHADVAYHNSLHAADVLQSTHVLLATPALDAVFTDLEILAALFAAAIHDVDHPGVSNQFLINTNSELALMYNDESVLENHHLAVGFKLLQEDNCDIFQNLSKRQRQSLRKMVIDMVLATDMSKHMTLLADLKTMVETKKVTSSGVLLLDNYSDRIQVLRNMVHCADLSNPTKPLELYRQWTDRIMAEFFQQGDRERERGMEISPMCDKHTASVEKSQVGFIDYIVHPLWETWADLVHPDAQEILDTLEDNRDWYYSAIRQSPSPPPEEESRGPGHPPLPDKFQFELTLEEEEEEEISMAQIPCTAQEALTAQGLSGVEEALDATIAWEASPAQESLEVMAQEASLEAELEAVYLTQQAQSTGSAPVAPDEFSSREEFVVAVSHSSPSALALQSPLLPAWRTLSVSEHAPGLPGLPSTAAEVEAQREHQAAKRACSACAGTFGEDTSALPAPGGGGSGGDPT
Protocol details: Isolated Recombinant Human PDE IVA Enzyme
Cond: 0.1 μM [3H]-cAMP, pH 7.5, 30° C.
Description: 1. Isolated Recombinant Human PDE IVA Enzyme A gene encoding human PDE IV has been cloned from human monocytes (Livi, et al., 1990, Molecular and Cellular Biology, 10, 2678). […] Phosphodiesterase activity was assayed as follows. […] Recovery of [^3 H]-5'AMP was determined using the [^14 C]-5'AMP and all assays were conducted in the linear range of the reaction. Results were expressed as IC50 values.
Your answer should be a plain number; it is taken to be in nM.

recombinant PDE IVA enzyme (Homo sapiens, UniProt P27815) / IC50 / CNC(=C[N+](=O)[O-])Nc1cccc([C@@H](Cc2ccncc2)c2ccc(OC)c(OC3CCCC3)c2)c1 : value?
3.3

With those in mind, consider the next molecule.
API: value(readout=IC50, system=recombinant PDE IVA enzyme (Homo sapiens, UniProt P27815)) for record CNC(=NC#N)Nc1cccc([C@@H](Cc2ccncc2)c2ccc(OC)c(OC3CCCC3)c2)c1
0.5
